Source of measurements: patent US9040501B2

test: Pharmacokinetics in mice after IV and PO administrations; format: in vivo, male BALB-c mice; conditions: male, BALB-c, mouse, plasma, 10 mg/kg IV, 8 hr, read-out: Plasma concentrations
EXPERIMENTAL_ENDPOINT: concentration at 8 hr

QUERY: Which concentration at 8 hr is listed for O=C1NCC=CCN1[C@@H]1O[C@H](CO)[C@@H](O)C1(F)F [ER-876437] ?
RESULT: 64 ng/mL

More entries:
QUERY: Which concentration at 8 hr is listed for O=C1NCC=CCN1[C@@H]1O[C@H](CO)[C@@H](O)[C@H]1O [ER-876400, reference compound] ?
RESULT: 59 ng/mL

###

experiment: Stability in simulated gastric fluid at 37° C. (HPLC); type: physicochemical; conditions: simulated gastric fluid (pH 1.45) at 37° C.
EXPERIMENTAL_ENDPOINT: half-life

QUERY: Which half-life is listed for `O=C1NCC=CCN1[C@@H]1O[C@H](CO)[C@@H](O)C1(F)F` ?
RESULT: 4 to 6 h

###

// values below are reported concentration at 6 hr
Experiment: Pharmacokinetics in mice after IV and PO administrations
Assay type: in vivo, male BALB-c mice
Settings: male, BALB-c, mouse, plasma, 10 mg/kg PO, 6 hr, read-out: Plasma concentrations
Experimental: […]. All doses were prepared in phosphate buffered saline (PBS) and were administered at a volume of 5 mL/kg. Five mice per group were used in these studies. Blood samples were taken serially from the tail vein of each mouse at predetermined timepoints. Blood samples from all mice in each group were pooled together prior to processing for plasma. The pooled blood samples were spun down within 30-60 minutes after withdrawal and the plasma was harvested and frozen for assay. […]

QUERY: Which concentration at 6 hr is listed for O=C1NCC=CCN1[C@@H]1O[C@H](CO)[C@@H](O)[C@H]1O [ER-876400, reference compound] ?
RESULT: 87 ng/mL

More entries:
QUERY: Which concentration at 6 hr is listed for `O=C1NCC=CCN1[C@@H]1O[C@H](CO)[C@@H](O)C1(F)F` ?
RESULT: 36 ng/mL

###

experiment: Pharmacokinetics in mice after IV and PO administrations; assay type: in vivo, male BALB-c mice; conditions: male, BALB-c, mouse, plasma, 10 mg/kg IV
EXPERIMENTAL_ENDPOINT: clearance (mL/min/kg)
Provide only the numeric value, understood in mL/min/kg.

QUERY: Which clearance is listed for `O=C1NCC=CCN1[C@@H]1O[C@H](CO)[C@@H](O)C1(F)F` ?
RESULT: 12.8

More entries:
QUERY: Which clearance is listed for O=C1NCC=CCN1[C@@H]1O[C@H](CO)[C@@H](O)[C@H]1O [ER-876400, reference compound] ?
RESULT: 8

###

// values below are reported concentration at 4 hr
assay: Pharmacokinetics in mice after IV and PO administrations; type: in vivo, male BALB-c mice; details: male, BALB-c, mouse, plasma, 10 mg/kg PO, 4 hr, read-out: Plasma concentrations

QUERY: Which concentration at 4 hr is listed for O=C1NCC=CCN1[C@@H]1O[C@H](CO)[C@@H](O)[C@H]1O [ER-876400, reference compound] ?
RESULT: 320 ng/mL

QUERY: Now the same for O=C1NCC=CCN1[C@@H]1O[C@H](CO)[C@@H](O)C1(F)F [ER-876437]
RESULT: 146 ng/mL
